Hello, the source for this data is the supplement of paper PMC10724198, in case you need it.

# Test system: Saccharomyces cerevisiae
# procedure details: protein stability index of tFT-peptide fusion (C-terminal peptide) (PSI (0-1 scale)); higher = more stable (slower turnover)
# study conditions: genetic background: wild type; temperature: 37 C

[
  {
    "biosequence": "FSRPTYYFIRHS",
    "protein stability index": 0.475
  },
  {
    "biosequence": "VLVVTAFTFSCP",
    "protein stability index": 0.392
  },
  {
    "biosequence": "VFWLLVGLGCFS",
    "protein stability index": 0.569
  },
  {
    "biosequence": "VGCMVVIWVLWG",
    "protein stability index": 0.278
  },
  {
    "biosequence": "SVSMYPKPHLIC",
    "protein stability index": 0.181
  },
  {
    "biosequence": "LARRASCFWVRC",
    "protein stability index": 0.559
  },
  {
    "biosequence": "YVASSWRHCFII",
    "protein stability index": 0.269
  },
  {
    "biosequence": "WLWYSPIAFTAL",
    "protein stability index": 0.163
  },
  {
    "biosequence": "FGWLELVWFDLG",
    "protein stability index": 0.68
  },
  {
    "biosequence": "CVPGPRWWYHSA",
    "protein stability index": 0.535
  },
  {
    "biosequence": "LVPYLWWLVFAL",
    "protein stability index": 0.24
  },
  {
    "biosequence": "ILLHSFFSFYLL",
    "protein stability index": 0.419
  },
  {
    "biosequence": "FSLFYYIHLSVA",
    "protein stability index": 0.197
  },
  {
    "biosequence": "LFWWCMVFISLI",
    "protein stability index": 0.34
  },
  {
    "biosequence": "SREQANTVYRLI",
    "protein stability index": 0.553
  },
  {
    "biosequence": "RGLLLKILIASG",
    "protein stability index": 0.382
  },
  {
    "biosequence": "ALEFLLLVCRRL",
    "protein stability index": 0.517
  },
  {
    "biosequence": "TIKGRLNVRKIE",
    "protein stability index": 0.573
  },
  {
    "biosequence": "DFPGDIILRLIA",
    "protein stability index": 0.214
  }
]

====

# System: Saccharomyces cerevisiae
# procedure details: protein stability index of tFT-peptide fusion (C-terminal peptide) (PSI (0-1 scale)); higher = more stable (slower turnover)
# study conditions: genetic background: wild type; temperature: 30 C
I would appreciate it if you labelled entries True when protein stability index is 0.6 or higher, otherwise False.

[
  {
    "biosequence": "CSRDVFLFIKFL",
    "assigned class": "False"
  },
  {
    "biosequence": "PPHGPPPLPPPS",
    "assigned class": "True"
  },
  {
    "biosequence": "CECANLIAHFCV",
    "assigned class": "True"
  },
  {
    "biosequence": "DGVRCCTKWTCA",
    "assigned class": "True"
  },
  {
    "biosequence": "GGVCVRMECWMG",
    "assigned class": "False"
  },
  {
    "biosequence": "SGFWVSVDVFFV",
    "assigned class": "False"
  },
  {
    "biosequence": "YGAGLRIGQFRC",
    "assigned class": "True"
  },
  {
    "biosequence": "GTIEFNKIEDFW",
    "assigned class": "True"
  },
  {
    "biosequence": "SPRHNALHFTLV",
    "assigned class": "True"
  }
]

====

# System: Saccharomyces cerevisiae
# procedure details: protein stability index of tFT-peptide fusion (C-terminal peptide) (PSI (0-1 scale)); higher = more stable (slower turnover)
# study conditions: genetic background: das1 deletion; temperature: 30 C
As shown below, each of these sequences has a reported protein stability index value.
measured property: protein stability index

[
  {
    "biosequence": "EMNNIIAASRRH [RPL36A C-terminal 12 aa]",
    "recorded value": 0.701
  },
  {
    "biosequence": "QYTQRVGRPNFE [YGR226C C-terminal 12 aa]",
    "recorded value": 0.708
  },
  {
    "biosequence": "GQLLSGSCLLNM [YBR226C C-terminal 12 aa]",
    "recorded value": 0.686
  },
  {
    "biosequence": "LCKEELKYQAIQ [YMR099C C-terminal 12 aa]",
    "recorded value": 0.701
  },
  {
    "biosequence": "AIRRGLTKKNEK [GDE1 C-terminal 12 aa]",
    "recorded value": 0.72
  },
  {
    "biosequence": "FFRQWWDIIQSK [YMR316C-A C-terminal 12 aa]",
    "recorded value": 0.7
  },
  {
    "biosequence": "WYNPSNQTYKSK [YLR222C-A C-terminal 12 aa]",
    "recorded value": 0.719
  },
  {
    "biosequence": "FYSLCEKGGYLK [BPT1 C-terminal 12 aa]",
    "recorded value": 0.679
  },
  {
    "biosequence": "GNTGSGGYDNAW [RPB3 C-terminal 12 aa]",
    "recorded value": 0.704
  }
]

====

Recorded protein stability index by entry
# System: Saccharomyces cerevisiae
# procedure details: protein stability index of tFT-peptide fusion in deletion strain of DAS1 (PSI (0-1 scale)); higher = more stable (slower turnover)
measured property: protein stability index

[
  {
    "biosequence": "LVVYGSCVACIN",
    "recorded value": 0.305
  },
  {
    "biosequence": "MSLAASFWRVVG",
    "recorded value": 0.67
  },
  {
    "biosequence": "PSLAASFWRMVG",
    "recorded value": 0.646
  },
  {
    "biosequence": "VRGAVGGFRLVG",
    "recorded value": 0.677
  },
  {
    "biosequence": "KKHKKGQKYKIN",
    "recorded value": 0.634
  },
  {
    "biosequence": "KKHKKGQCQKIN",
    "recorded value": 0.801
  },
  {
    "biosequence": "NSMRWTFRYWVN",
    "recorded value": 0.598
  },
  {
    "biosequence": "SKILRQKMNHQN",
    "recorded value": 0.677
  }
]

====

# System: Saccharomyces cerevisiae
# procedure details: protein stability index of tFT-peptide fusion (C-terminal peptide) (PSI (0-1 scale)); higher = more stable (slower turnover)
# study conditions: genetic background: das1 deletion; temperature: 37 C
Reported values of protein stability index for individual entries

[
  {
    "biosequence": "GRRLGLLNLLSY",
    "protein stability index": 0.724
  },
  {
    "biosequence": "FLRWRVWVVVGW",
    "protein stability index": 0.358
  },
  {
    "biosequence": "LARRASCFWVRC",
    "protein stability index": 0.718
  },
  {
    "biosequence": "AGGLLIGSVGVG",
    "protein stability index": 0.468
  },
  {
    "biosequence": "NFTDMGRSLYIN",
    "protein stability index": 0.775
  },
  {
    "biosequence": "CSSLIMIITCVN",
    "protein stability index": 0.4
  },
  {
    "biosequence": "VWVVRGFLGFGG",
    "protein stability index": 0.457
  },
  {
    "biosequence": "LLGHLFTMLVIY",
    "protein stability index": 0.366
  },
  {
    "biosequence": "VKIEVICRVSLI",
    "protein stability index": 0.495
  },
  {
    "biosequence": "MCVCLLVRVVPS",
    "protein stability index": 0.41
  },
  {
    "biosequence": "GGVCVRMECWMG",
    "protein stability index": 0.579
  },
  {
    "biosequence": "VFSAIPDWLILA",
    "protein stability index": 0.549
  },
  {
    "biosequence": "VLCFFWWWCRVC",
    "protein stability index": 0.583
  },
  {
    "biosequence": "VTLVIYVLVQLT",
    "protein stability index": 0.259
  },
  {
    "biosequence": "IVIFQTAYVVRI",
    "protein stability index": 0.238
  },
  {
    "biosequence": "FRHFPLLLSFVR",
    "protein stability index": 0.512
  },
  {
    "biosequence": "WAIMGLIIFCLF",
    "protein stability index": 0.438
  },
  {
    "biosequence": "VFFLAFYFYRCF",
    "protein stability index": 0.545
  },
  {
    "biosequence": "TIKGRLNVRKIE",
    "protein stability index": 0.741
  },
  {
    "biosequence": "CGPLLVTLVLSM",
    "protein stability index": 0.501
  },
  {
    "biosequence": "LWVMVLFFPGCS",
    "protein stability index": 0.552
  },
  {
    "biosequence": "FSIFFFLLPSSL",
    "protein stability index": 0.604
  },
  {
    "biosequence": "GRWLYSACVALN",
    "protein stability index": 0.706
  },
  {
    "biosequence": "AFLCVFGFCFFV",
    "protein stability index": 0.482
  },
  {
    "biosequence": "SFIVGYRWNNRN",
    "protein stability index": 0.754
  },
  {
    "biosequence": "IVVVVRLSPILG",
    "protein stability index": 0.427
  },
  {
    "biosequence": "SCLLVVVSTSGN",
    "protein stability index": 0.611
  },
  {
    "biosequence": "SVSRIFRTFSCY",
    "protein stability index": 0.681
  },
  {
    "biosequence": "RRVFPLIIVLLF",
    "protein stability index": 0.279
  },
  {
    "biosequence": "KIIKERIRRIKI",
    "protein stability index": 0.713
  },
  {
    "biosequence": "VYCLFLPLGVAF",
    "protein stability index": 0.248
  },
  {
    "biosequence": "FLSRLVGFYFVV",
    "protein stability index": 0.733
  },
  {
    "biosequence": "LSFLCFSTVLHC",
    "protein stability index": 0.58
  },
  {
    "biosequence": "YAFYLFSRILAA",
    "protein stability index": 0.349
  },
  {
    "biosequence": "DLPKAYCIEMIG",
    "protein stability index": 0.719
  },
  {
    "biosequence": "FVFCTCSFFFLW",
    "protein stability index": 0.54
  },
  {
    "biosequence": "FGWLELVWFDLG",
    "protein stability index": 0.703
  },
  {
    "biosequence": "SRNSSRYLLLVS",
    "protein stability index": 0.649
  },
  {
    "biosequence": "FLQIIIFSRVLF",
    "protein stability index": 0.549
  },
  {
    "biosequence": "FERKVHSRWLFF",
    "protein stability index": 0.741
  },
  {
    "biosequence": "LSLLCFVASVVA",
    "protein stability index": 0.292
  },
  {
    "biosequence": "LESYGLRDSTSG",
    "protein stability index": 0.741
  },
  {
    "biosequence": "SGFLRFRGLVCY",
    "protein stability index": 0.503
  },
  {
    "biosequence": "LFFGFFLIYFLG",
    "protein stability index": 0.495
  },
  {
    "biosequence": "YRGFFIGKLMLV",
    "protein stability index": 0.63
  },
  {
    "biosequence": "SRKRIVALMLSG",
    "protein stability index": 0.686
  },
  {
    "biosequence": "ALFLYNCVVVTD",
    "protein stability index": 0.25
  },
  {
    "biosequence": "FGSFVVWGVWWG",
    "protein stability index": 0.563
  },
  {
    "biosequence": "VRTFVFLVGYCE",
    "protein stability index": 0.614
  },
  {
    "biosequence": "SGFWVSVDVFFV",
    "protein stability index": 0.32
  },
  {
    "biosequence": "PETSRFALNEWG",
    "protein stability index": 0.755
  },
  {
    "biosequence": "GPPPAPSPTPSP",
    "protein stability index": 0.722
  },
  {
    "biosequence": "MVVSLVLCFWAS",
    "protein stability index": 0.409
  },
  {
    "biosequence": "CFWLLSSLLLFL",
    "protein stability index": 0.54
  },
  {
    "biosequence": "IGWKLNRIQKNI",
    "protein stability index": 0.728
  },
  {
    "biosequence": "CCLGVIASFIVW",
    "protein stability index": 0.455
  },
  {
    "biosequence": "SREQANTVYRLI",
    "protein stability index": 0.719
  },
  {
    "biosequence": "SILFSYFCFFLL",
    "protein stability index": 0.586
  },
  {
    "biosequence": "RFFFSSFPLLIS",
    "protein stability index": 0.471
  },
  {
    "biosequence": "IWYGLFWLRFWV",
    "protein stability index": 0.586
  },
  {
    "biosequence": "SGRATSSRTSEP",
    "protein stability index": 0.713
  },
  {
    "biosequence": "YRLTIVWFFLAL",
    "protein stability index": 0.609
  },
  {
    "biosequence": "PPRRCFPLLLFF",
    "protein stability index": 0.546
  },
  {
    "biosequence": "LGGVGTLVHCFV",
    "protein stability index": 0.607
  },
  {
    "biosequence": "NYVVFVRGIKIT",
    "protein stability index": 0.633
  },
  {
    "biosequence": "ARVSLSFVSVSA",
    "protein stability index": 0.494
  },
  {
    "biosequence": "FFPFHPHVLRLL",
    "protein stability index": 0.637
  },
  {
    "biosequence": "ARWNTDRRRRQL",
    "protein stability index": 0.702
  },
  {
    "biosequence": "FSLWSRRSITVY",
    "protein stability index": 0.113
  },
  {
    "biosequence": "ARFFFFCVGILI",
    "protein stability index": 0.503
  },
  {
    "biosequence": "ALTLSYAIKLKV",
    "protein stability index": 0.459
  },
  {
    "biosequence": "QCLSYFFPVPVA",
    "protein stability index": 0.227
  }
]
